I'd be grateful if you could share measured fold change for these entries.
Assay: modulation of TERT promoter-driven luciferase – cell-based, luciferase reporter, human, primary screen (AID 1259240)
Conditions: A2780 TERT promoter luciferase reporter, 16 h; at 20 µM, fold versus average of vehicle-only wells
Answers are plain numbers.

- compound: "CCCCNc1c(N2CCN(C(=O)OCC)CC2)c(=O)c1=O"
  fold change: 1.31

Hi, could you look up fold change for each item in my list?
1. CCCC1=NN2C(=N)/C(=C\c3ccc(SCc4ccco4)o3)C(=O)N=C2S1
2. O=C(O)CN1C(=O)/C(=C\c2ccc(-c3ccccc3)o2)SC1=S
3. Cc1ccc2oc(-c3ccccc3C(=O)O)cc(=O)c2c1
4. CCOC(=O)c1nn(-c2ccc(C)cc2)c(=O)c2c(NC(=O)c3ccc(C)c([N+](=O)[O-])c3)scc12
5. C=CCOc1ccc(-c2nc3s/c(=C\c4cccc(OC(C)=O)c4)c(=O)n3n2)cc1

Given back:
1. -1.68
2. -1.88
3. 1.62
4. 1.24
5. 1.2

---

Assay: modulation of TERT promoter-driven luciferase – cell-based, luciferase reporter, human, primary screen (AID 1259240)
Details: A2780 TERT promoter luciferase reporter, 16 h; at 20 µM, fold versus average of vehicle-only wells
Active and inactive are the calls of the source. Rule as the data show it: active = fold change mostly below about -2 (no sharp cut-off); inactive = mostly above about -1.8.
Would you mind answering with one of these outcomes? active, inactive

Asked: What was the test verdict on `Cc1c(Cl)cccc1NS(=O)(=O)c1cccc2cccnc12` ?
Given back: inactive

Asked: What was the test verdict on `Cc1ccc(N2CN=c3s/c(=C4\C(=O)Nc5ccccc54)c(=O)n3C2)cc1` ?
Given back: inactive

Asked: What was the test verdict on `O=C(NCc1ccc(Cl)cc1)Nc1ccc2snnc2c1` ?
Given back: inactive

Asked: What was the test verdict on CCCCN(C)C(=O)Cn1c(=O)oc2cc(S(=O)(=O)N3CC(C)CC(C)C3)ccc21 (stereo not given) ?
Given back: inactive

Asked: What was the test verdict on `CSc1ccc(CCNc2ccc3nnc(-c4ccccc4)n3n2)cc1` ?
Given back: inactive

Asked: What was the test verdict on COc1ccc(-c2n[nH]c3c2C(c2ccccc2)NC3=O)cc1 (stereo not given) ?
Given back: inactive

---

Experiment: modulation of TERT promoter-driven luciferase – cell-based, luciferase reporter, human, primary screen (AID 1259240)
Details: A2780 TERT promoter luciferase reporter, 16 h; at 20 µM, fold versus average of vehicle-only wells
Active and inactive are the calls of the source. Rule as the data show it: active = fold change mostly below about -2 (no sharp cut-off); inactive = mostly above about -1.8.
Would you mind answering with one of these outcomes? active, inactive

Worked examples, 6 molecules total:
- molecule: "COc1ccc(NC(=O)c2cnccn2)cc1F"
  label class: "inactive"
- molecule: "CCOc1ccc(N2CC(O)=C(c3nc4ccccc4c(=O)[nH]3)C2=N)cc1"
  label class: "inactive"
- molecule: "O=C(CSc1nc(-c2ccco2)cc(C(F)(F)F)n1)NCc1cccnc1"
  label class: "inactive"
- molecule: "c1csc(CSc2nnc3sc4ccccc4n23)c1"
  label class: "inactive"
- molecule: "CCOC(=O)C1CCN(c2c(NCCCN3CCCCCC3)c(=O)c2=O)CC1"
  label class: "inactive"
- molecule: "CCc1ccc(S(=O)(=O)n2c(C)nc3ccccc32)cc1"
  label class: "active"

Next, consider the following molecule.
Asked: What was the test verdict on `COc1ccc(Nc2c(-c3ccc(N4CCOCC4)cc3)nc3ncccn23)cc1OC` ?
Given back: inactive

---

Test: modulation of TERT promoter-driven luciferase – cell-based, luciferase reporter, human, primary screen (AID 1259240)
Settings: A2780 TERT promoter luciferase reporter, 16 h; at 20 µM, fold versus average of vehicle-only wells
Active and inactive are the calls of the source. Cut-off read from the data, not from the text of the source: active = fold change mostly below about -2 (no sharp cut-off); inactive = mostly above about -1.8.
Would you mind answering with one of these outcomes? active, inactive

Worked examples, 5 compounds total:
- compound: "Cn1c(=O)oc2cc(S(=O)(=O)N3CCC(C(=O)Nc4nccs4)CC3)ccc21"
  label class: "inactive"
- compound: "Cc1ccc(C)c(Nc2nc3ccccc3n3nnnc23)c1"
  label class: "inactive"
- compound: "Cc1cccc2sc(NC(=O)c3ccc(CNc4c(NC5CCCC5)c(=O)c4=O)cc3)nc12"
  label class: "inactive"
- compound: "CCOC(=O)N1CCC(Nc2c(N3CC(C)CC(C)C3)c(=O)c2=O)CC1 (stereo not given)"
  label class: "inactive"
- compound: "Cc1c(NC(=O)c2cc(CC(C)C)on2)c(=O)n(-c2ccccc2)n1C"
  label class: "inactive"

Asked: What was the test verdict on CC1=C(C(N)=O)C(c2ccc(Br)cc2)n2nc(CCCO)nc2N1 (stereo not given) ?
Given back: inactive

Asked: What was the test verdict on `CCc1ccc2[nH]cc(S(=O)(=O)c3ccc(F)cc3)c(=O)c2c1` ?
Given back: inactive

Asked: What was the test verdict on `CC(=O)c1sc2nc(-c3ccc(Br)cc3)cn2c1C` ?
Given back: active

Asked: What was the test verdict on `O=C(O)Cn1cc(/C=C2/C(=O)Nc3ccccc32)c2ccccc21` ?
Given back: inactive

Asked: What was the test verdict on `O=c1/c(=C/c2ccc(F)cc2)sc2nc(-c3ccco3)nn12` ?
Given back: inactive

---

Test: modulation of TERT promoter-driven luciferase – cell-based, luciferase reporter, human, primary screen (AID 1259240)
Conditions: A2780 TERT promoter luciferase reporter, 16 h; at 20 µM, fold versus average of vehicle-only wells
Calls of active or inactive are those of the source. No stated cut-off is given here; in the data, active means fold change mostly below about -2 (no sharp cut-off); inactive means mostly above about -1.8.
Would you mind answering with one of these outcomes? active, inactive

- molecule: "COc1ccc(C2CC(c3cccs3)=NN2C(=O)CSc2ncnc3ccccc23)cc1 (configuration not stated)"
  label class: "inactive"
- molecule: "CCOc1ccc(/C=c2\\sc3nc(=O)c(Cc4ccc(Cl)cc4)nn3c2=O)cc1OC"
  label class: "inactive"
- molecule: "CCSc1nc2ccccc2n1S(=O)(=O)c1ccccc1"
  label class: "active"
- molecule: "CN(C)c1ccc(/C=c2\\sc3nc(-c4ccco4)nn3c2=O)cc1"
  label class: "inactive"

Asked: What was the test verdict on `COc1cc2[nH]c(C)cc(=O)c2cc1OC` ?
Given back: inactive

Asked: What was the test verdict on `N#Cc1ccc(Cn2c(=O)n(Cc3ccccc3Cl)c(=O)c3cccnc32)cc1` ?
Given back: inactive

---

Experiment: modulation of TERT promoter-driven luciferase – cell-based, luciferase reporter, human, primary screen (AID 1259240)
Conditions: A2780 TERT promoter luciferase reporter, 16 h; at 20 µM, fold versus average of vehicle-only wells
Activity calls are given as the source filed them. No stated cut-off is given here; in the data, active means fold change mostly below about -2 (no sharp cut-off); inactive means mostly above about -1.8.
Would you mind answering with one of these outcomes? active, inactive

Worked examples, 8 compounds total:
- compound: "O=C(Cn1ncc2c3ccccc3n(Cc3ccccc3)c2c1=O)N1CCCC1"
  label class: "inactive"
- compound: "O=C(CSc1ncnc2ccccc12)N1CCc2ccccc21"
  label class: "inactive"
- compound: "CCOP(=O)(OCC)C(Nc1ccccn1)c1ccc(F)cc1 (stereo not given)"
  label class: "inactive"
- compound: "Cn1c(-c2ccc(N)cc2)nc2cc(N)ccc21"
  label class: "inactive"
- compound: "Cc1cc(Oc2ccccc2)nc(SCC(N)=O)n1"
  label class: "inactive"
- compound: "O=C(Cn1ncc2c3ccccc3n(Cc3ccccc3)c2c1=O)N1CCOCC1"
  label class: "inactive"
- compound: "O=C(NCCCN1CCCC1)c1ccc2nc(N3CCOCC3)sc2c1"
  label class: "inactive"
- compound: "CN1CCN(CCNC(=O)Cn2ncc3c4ccccc4n(C)c3c2=O)CC1"
  label class: "inactive"

Asked: What was the test verdict on Cn1c(=O)oc2cc(S(=O)(=O)N3CCC(C(=O)NCC4COc5ccccc5O4)CC3)ccc21 (stereo not given) ?
Given back: inactive

Asked: What was the test verdict on `Cc1ccc(Nc2nc3ccccc3n3cnnc23)cc1` ?
Given back: inactive

Asked: What was the test verdict on CCOC(=O)c1ccc(N2C(=O)c3n[nH]c(-c4ccco4)c3C2c2ccc(C)cc2)cc1 (stereo not given) ?
Given back: active

Asked: What was the test verdict on `CCCn1c(NCc2cccs2)nc2ccccc21` ?
Given back: inactive

Asked: What was the test verdict on `COc1ccc(CCNc2ccc3nnc(C)n3n2)c(OC)c1` ?
Given back: inactive

---

I'd be grateful if you could share measured fold change for these entries.
Experiment: modulation of TERT promoter-driven luciferase – cell-based, luciferase reporter, human, primary screen (AID 1259240)
Settings: A2780 TERT promoter luciferase reporter, 16 h; at 20 µM, fold versus average of vehicle-only wells
Active and inactive are the calls of the source. Rule as the data show it: active = fold change mostly below about -2 (no sharp cut-off); inactive = mostly above about -1.8.

These recorded examples may help you get a feel for the data.
- smiles text: "S=c1nc(-c2ccccc2)n(CCCn2ccnc2)c2c1CCCC2"
  fold change: "1.02 (inactive)"
- smiles text: "CSc1ccc(/C=c2\\sc3nc(-c4ccco4)nn3c2=O)cc1"
  fold change: "-1.12 (inactive)"

Hi, could you look up fold change for each item in my list?
1. CCOC(=O)Cn1c(=O)oc2cc(S(=O)(=O)NCc3ccccn3)ccc21
2. COc1cc(OC)cc(-c2cc(N)n(S(=O)(=O)Cc3ccccc3)n2)c1
3. C=CCn1c(SCC(=O)N2CCCCC2)nc2sc3c(c2c1=O)CCC3

Given back:
1.36 (inactive)
1.16 (inactive)
-1.53 (inactive)
